- Tested target: Hex A (Homo sapiens, UniProt P06865+P07686)
- Sequence (P06865 89-529): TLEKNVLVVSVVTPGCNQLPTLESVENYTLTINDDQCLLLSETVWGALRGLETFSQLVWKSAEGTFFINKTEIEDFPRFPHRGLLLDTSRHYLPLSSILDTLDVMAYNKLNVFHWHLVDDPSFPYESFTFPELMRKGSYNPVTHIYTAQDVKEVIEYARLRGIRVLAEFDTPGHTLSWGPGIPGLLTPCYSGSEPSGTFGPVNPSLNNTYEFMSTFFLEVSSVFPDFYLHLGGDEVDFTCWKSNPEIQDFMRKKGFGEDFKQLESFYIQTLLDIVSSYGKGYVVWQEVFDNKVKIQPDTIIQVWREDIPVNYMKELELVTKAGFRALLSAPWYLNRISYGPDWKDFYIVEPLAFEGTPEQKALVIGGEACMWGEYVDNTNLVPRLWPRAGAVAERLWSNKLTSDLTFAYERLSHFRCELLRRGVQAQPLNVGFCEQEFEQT
- Sequence (P07686 122-311 limits assumed): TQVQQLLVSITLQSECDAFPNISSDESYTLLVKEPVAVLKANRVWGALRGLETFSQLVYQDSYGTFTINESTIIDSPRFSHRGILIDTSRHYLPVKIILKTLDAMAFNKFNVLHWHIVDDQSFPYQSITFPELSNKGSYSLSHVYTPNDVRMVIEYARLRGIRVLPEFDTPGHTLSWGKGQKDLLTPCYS
- Sequence (P07686 315-556 limits assumed): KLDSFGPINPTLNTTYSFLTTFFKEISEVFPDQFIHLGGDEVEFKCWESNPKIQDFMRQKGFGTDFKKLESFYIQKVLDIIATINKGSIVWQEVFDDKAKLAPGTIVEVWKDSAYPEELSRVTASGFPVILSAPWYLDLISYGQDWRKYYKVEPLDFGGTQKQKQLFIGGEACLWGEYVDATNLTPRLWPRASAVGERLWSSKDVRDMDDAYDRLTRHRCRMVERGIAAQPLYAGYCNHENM
- Test protocol: Hex A inhibition (IC50 from dose response curves of Hex A residual activity);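 also: remaining Hex A enzyme activity recorded across rising inhibitor doses, with dose response curves run at pH 6.5 and again at pH 4.5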
- Study conditions: IC50 (μM ± Err), in brackets, brackets: IC50 extrapolated from an incomplete dose response curve
Consider the following compounds and their measured IC50 readings.

{"Smiles record": "CCCCc1nc(N)nc(N)c1-c1ccc(C)cc1", "IC50, µM": 600}
{"Smiles record": "CCc1[nH]c(=O)nc(N)c1-c1ccc(Cl)cc1", "IC50, µM": 400}
{"Smiles record": "CCCCc1nc(N)nc(N)c1-c1ccc(OC)cc1", "IC50, µM": 870}
{"Smiles record": "CCc1ncnc(N)c1-c1ccc(C(F)(F)F)cc1", "IC50, µM": 936}

* * *

Consider the following molecules and their measured Max Increase readings.
- Tested target: mutant Hex A (Homo sapiens, UniProt P06865+P07686)
- Assay type: cell-based
- Study conditions: maximum increase in Hex A activity relative to untreated cells (=1)
Reported property: Max Increase

{"Molecule": "CCCc1nc(N)nc(N)c1-c1ccc(C)cc1 [zjm1-137]", "Tested target": "mutant Hex A (Homo sapiens, UniProt P06865+P07686)", "Reported property": "Max Increase", "Endpoint result": 2.0}
{"Molecule": "CCc1nc(N)nc(N)c1-c1ccc(Cl)cc1 [PYR, Pyrimethamine, reference compound]", "Tested target": "mutant Hex A (Homo sapiens, UniProt P06865+P07686)", "Reported property": "Max Increase", "Endpoint result": 2.0}
{"Molecule": "CCc1nc(N)nc(N)c1-c1ccc(C)cc1 [ksh3-19b]", "Tested target": "mutant Hex A (Homo sapiens, UniProt P06865+P07686)", "Reported property": "Max Increase", "Endpoint result": 1.5}
{"Molecule": "CCCc1nc(N)nc(N)c1-c1ccccc1 [ksh3-29]", "Tested target": "mutant Hex A (Homo sapiens, UniProt P06865+P07686)", "Reported property": "Max Increase", "Endpoint result": 1.6}
{"Molecule": "CCCc1nc(N)nc(N)c1-c1ccc(Cl)cc1 [zjm1-135]", "Tested target": "mutant Hex A (Homo sapiens, UniProt P06865+P07686)", "Reported property": "Max Increase", "Endpoint result": 1.4}
{"Molecule": "CCCc1nc(N)nc(N)c1-c1cccc(C)c1 [ksh3.33d]", "Tested target": "mutant Hex A (Homo sapiens, UniProt P06865+P07686)", "Reported property": "Max Increase", "Endpoint result": 1.7}
{"Molecule": "CCc1nc(N)nc(N)c1-c1ccc(C(F)(F)F)cc1 [vsa5]", "Tested target": "mutant Hex A (Homo sapiens, UniProt P06865+P07686)", "Reported property": "Max Increase", "Endpoint result": 1.4}
{"Molecule": "CCCc1nc(N)nc(N)c1-c1ccc(F)cc1 [ksh3-33a]", "Tested target": "mutant Hex A (Homo sapiens, UniProt P06865+P07686)", "Reported property": "Max Increase", "Endpoint result": 1.4}
{"Molecule": "CCc1nc(N)nc(N)c1-c1cccc(C)c1 [ksh3-19d]", "Tested target": "mutant Hex A (Homo sapiens, UniProt P06865+P07686)", "Reported property": "Max Increase", "Endpoint result": 2.1}
{"Molecule": "CCCc1nc(N)nc(N)c1-c1cc(C)cc(C)c1 [ksh3.33e]", "Tested target": "mutant Hex A (Homo sapiens, UniProt P06865+P07686)", "Reported property": "Max Increase", "Endpoint result": 1.6}
